- Tested on: Nucleic Acid
- PROTOCOL SUMMARY: Binding affinity to DNA 5'-d GCG TAC AP CAT GCG-3' 3'-d CGC ATG T GTA CGC-5' assessed as equilibrium association constant by SPR analysis in presence of 50 mM NaCl
- Assay type: nucleic-acid assay
Entries and their measured log10 of Ka follow.
MEASUREMENT TYPE: log10 of Ka (log10 of the value in ×10⁶ /M)

chemical_structure=NCCCNCCCNCCCn1ccc(N)nc1=O experimental_system="Nucleic Acid" measurement_type="log10 of Ka" reported_result=-3.00
chemical_structure=NCCCNCCCNCCCn1ccc(=O)[nH]c1=O experimental_system="Nucleic Acid" measurement_type="log10 of Ka" reported_result=-1.57
chemical_structure=NCCCNCCCNCCCn1cnc2c(N)ncnc21 experimental_system="Nucleic Acid" measurement_type="log10 of Ka" reported_result=0.59
chemical_structure=NCCCNCCCNCCCn1cnc2c(=O)[nH]c(N)nc21 experimental_system="Nucleic Acid" measurement_type="log10 of Ka" reported_result=-1.10
chemical_structure=Cc1cn(CCCNCCCNCCCN)c(=O)[nH]c1=O experimental_system="Nucleic Acid" measurement_type="log10 of Ka" reported_result=-1.28

---

- Tested on: Nucleic Acid
- PROTOCOL SUMMARY: Binding affinity to DNA 5'-d GCG TAC AP CAT GCG-3' 3'-d CGC ATG A GTA CGC-5' assessed as equilibrium association constant by SPR analysis in presence of 50 mM NaCl
- Format: nucleic-acid assay
Could you label it y if measured Ka is 0.06 ×10⁶ /M or higher, and n otherwise?

chemical_structure=NCCCNCCCNCCCn1cnc2c(=O)[nH]c(N)nc21 answer_label=n
chemical_structure=NCCCNCCCNCCCn1cnc2c(N)ncnc21 answer_label=n
chemical_structure=Cc1cn(CCCNCCCNCCCN)c(=O)[nH]c1=O answer_label=y
chemical_structure=NCCCNCCCNCCCn1ccc(=O)[nH]c1=O answer_label=n
chemical_structure=NCCCNCCCNCCCn1ccc(N)nc1=O answer_label=n

---

Entries and their measured Ka follow.
- Tested on: Nucleic Acid
- PROTOCOL SUMMARY: Binding affinity to DNA 5'-d GCG TAC AP CAT GCG-3' 3'-d CGC ATG C GTA CGC-5' assessed as equilibrium association constant by SPR analysis in presence of 50 mM NaCl
- Type: nucleic-acid assay
MEASUREMENT TYPE: Ka (×10⁶ /M)

chemical_structure=NCCCNCCCNCCCn1cnc2c(=O)[nH]c(N)nc21 readout_units="×10⁶ /M" reported_result=6.3
chemical_structure=NCCCNCCCNCCCn1cnc2c(N)ncnc21 readout_units="×10⁶ /M" reported_result=0.01
chemical_structure=Cc1cn(CCCNCCCNCCCN)c(=O)[nH]c1=O readout_units="×10⁶ /M" reported_result=0.063
chemical_structure=NCCCNCCCNCCCn1ccc(N)nc1=O readout_units="×10⁶ /M" reported_result=0.002
chemical_structure=NCCCNCCCNCCCn1ccc(=O)[nH]c1=O readout_units="×10⁶ /M" reported_result=0.022

---

- System: Nucleic Acid
- PROTOCOL SUMMARY: Binding affinity to DNA 5'-d GCG TAC AP CAT GCG-3' 3'-d CGC ATG G GTA CGC-5' assessed as equilibrium association constant by SPR analysis in presence of 50 mM NaCl
- Format: nucleic-acid assay
Entries and their measured Ka follow.
MEASUREMENT TYPE: Ka (×10⁶ /M)

chemical_structure=Cc1cn(CCCNCCCNCCCN)c(=O)[nH]c1=O experimental_system="Nucleic Acid" reported_result=0.043
chemical_structure=NCCCNCCCNCCCn1cnc2c(N)ncnc21 experimental_system="Nucleic Acid" reported_result=0.087
chemical_structure=NCCCNCCCNCCCn1ccc(=O)[nH]c1=O experimental_system="Nucleic Acid" reported_result=0.001
chemical_structure=NCCCNCCCNCCCn1cnc2c(=O)[nH]c(N)nc21 experimental_system="Nucleic Acid" reported_result=0.047
chemical_structure=NCCCNCCCNCCCn1ccc(N)nc1=O experimental_system="Nucleic Acid" reported_result=0.039

Attribution: ChEMBL document CHEMBL2057170
